Tested on: Candida albicans (IFO 0538)
Experiment: Antifungal activity against Candida albicans, paper disc growth inhibition zone (Tables 5 and 6)
Assay type: cell-based
Settings: 48 h, pH 7, B medium (yeast nitrogen base agar, pH 7.0), 28° C., 2 days incubation; read-out: Inhibition zone diameter
observation.type: zone of inhibition at 1000 µg/mL
Quick note: unit goes after the number.

1. C[C@@H](S)[C@](O)(Cn1cncn1)c1ccc(F)cc1F (racemic) [Compound 39] ... 18 mm
2. OC(CSCCSc1ccncc1)(Cn1cncn1)c1ccc(F)cc1F (centres unmarked) ... 25 mm
3. Cc1nc(CS[C@H](C)[C@](O)(Cn2cncn2)c2ccc(F)cc2F)cs1 [Compound 107] ... 33 mm
4. C[C@@H](SCc1nsc(N)n1)[C@](O)(Cn1cncn1)c1ccc(F)cc1F ... 30 mm
5. C[C@@H](SCc1cn2ccncc2n1)[C@](O)(Cn1cncn1)c1ccc(F)cc1F ... 30 mm
6. C[C@@H](SCc1nccs1)[C@](O)(Cn1cncn1)c1ccc(F)cc1F (relative stereo) ... 47 mm
7. C[C@@H](SCc1ncc2cccnn12)[C@](O)(Cn1cncn1)c1ccc(F)cc1F ... 40 mm

# C[C@@H](SCCSCCn1ccnc1)[C@](O)(Cn1cncn1)c1ccc(F)cc1F (relative stereo) with Candida albicans (IFO 0538): zone of inhibition at 1000 µg/mL is 25 mm

---

Test system: Candida albicans (IFO 0538)
Assay: Antifungal activity against Candida albicans, paper disc growth inhibition zone (Tables 5 and 6)
Type: cell-based
Settings: 48 h, pH 7, B medium (yeast nitrogen base agar, pH 7.0), 28° C., 2 days incubation; read-out: Inhibition zone diameter
Kindly return fulfilled if reported zone of inhibition at 1000 µg/mL is no lower than 30 mm; return not fulfilled if it is lower.

Worked set:
1. Cc1csc(CS[C@H](C)[C@](O)(Cn2cncn2)c2ccc(F)cc2F)n1 (relative stereo) [Compound 37] ... fulfilled
2. Cn1ccnc1SCCSCC(O)(Cn1cncn1)c1ccc(F)cc1F (centres unmarked) ... not fulfilled
3. CCn1ccnc1CS[C@H](C)[C@](O)(Cn1cncn1)c1ccc(F)cc1F [Compound 101] ... fulfilled
4. C[C@@H](SCc1csc(N)n1)[C@](O)(Cn1cncn1)c1ccc(F)cc1F ... fulfilled
5. C[C@@H](S)[C@](O)(Cn1cncn1)c1ccc(F)cc1F [Compound 43] ... fulfilled

Switching to the query record.
Answer whether zone of inhibition at 1000 µg/mL of C[C@@H](SCc1ncc2n1CCC2)[C@](O)(Cn1cncn1)c1ccc(F)cc1F (relative stereo) [Compound 35] is greater than or equal to 30 mm.
fulfilled

---

Measured ED50, listed per entry for reference.
Test system: Candida albicans
Assay: Infection-preventing effect in experimental infection in mice, Method 1 (Table 7-1)
Type: in vivo, Crj:CDF1 mice
Settings: Candida albicans, sc, 168 h, s.c., given 0 and 2 hours after infection; survival 7 days after infection; total dose; read-out: ED50
Counter-ions that a name gives are not always drawn.
// units = mg/kg; emit number, no label

Below: 3 molecules and their reported ED50.
1. C[C@@H](SCc1nncn1C)[C@](O)(Cn1cncn1)c1ccc(F)cc1F (relative stereo) [Compound 33] ... 0.45
2. CC(C)C(=O)S[C@H](C)[C@](O)(Cn1cncn1)c1ccc(F)cc1F [Compound 62] ... 0.5
3. C[C@@H](SCc1ncc2n1CCC2)[C@](O)(Cn1cncn1)c1ccc(F)cc1F (relative stereo) [Compound 35] ... 0.71

The reported value for C[C@@H](SCc1cn2ccccc2n1)[C@](O)(Cn1cncn1)c1ccc(F)cc1F (relative stereo) [27(hydrochloride)] in terms of ED50 is 3.2

The reported value for Cc1nc(CS[C@H](C)[C@](O)(Cn2cncn2)c2ccc(F)cc2F)cs1 [Compound 107] in terms of ED50 is 0.71

The reported value for C[C@@H](SCc1nccn1CC(F)(F)F)[C@](O)(Cn1cncn1)c1ccc(F)cc1F (relative stereo) [Compound 49] in terms of ED50 is 1

The reported value for CC(SCC(O)(Cn1cncn1)c1ccc(F)cc1F)c1ccncc1 (stereo not drawn) [Compound 10] in terms of ED50 is 35.4

The reported value for C[C@@H](SCc1nccn1C(CF)CF)[C@](O)(Cn1cncn1)c1ccc(F)cc1F (relative stereo) [Compound 59] in terms of ED50 is 1.4

The reported value for C[C@@H](SCc1nc2c(s1)CCC2)[C@](O)(Cn1cncn1)c1ccc(F)cc1F (relative stereo) [Compound 25] in terms of ED50 is 3.2

The reported value for C[C@@H](SCc1nccn1CC(F)F)[C@](O)(Cn1cncn1)c1ccc(F)cc1F (relative stereo) [Compound 54] in terms of ED50 is 0.5

The reported value for C[C@@H](SCc1nccs1)[C@](O)(Cn1cncn1)c1ccc(F)cc1F (relative stereo) [38(hydrochloride)] in terms of ED50 is 3.2

The reported value for C[C@@H](SCc1ncn(C)n1)[C@](O)(Cn1cncn1)c1ccc(F)cc1F (relative stereo) [Compound 32] in terms of ED50 is 3.2

The reported value for O=S(=O)(CCn1cncn1)CC(O)(Cn1cncn1)c1ccc(F)cc1F (stereo not drawn) [Compound 3] in terms of ED50 is 32.4

The reported value for C[C@@H](SCc1nccn1CC1CC1)[C@](O)(Cn1cncn1)c1ccc(F)cc1F (relative stereo) [Compound 51] in terms of ED50 is 2

The reported value for C[C@@H](Sc1nc2c(s1)CCC2)[C@](O)(Cn1cncn1)c1ccc(F)cc1F (relative stereo) [Compound 12] in terms of ED50 is 2.5
